- target.entity: human Beta-secretase (BACE), BACE1 (gene 23621)
- assay.name: NVS_ENZ_hBACE: NovaScreen (NVS) Enzymatic Assay for human Beta-secretase (BACE) (AID 2283140);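 further: hits are inhibitors that reduce fluorescent substrate signal versus DMSO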
Inconclusive results are not listed. Active and inactive are the calls of the source. How the source made its calls: active means hit-call score of the fitted dose curve at least 0.9, where 1 is the maximum; inconclusive means response in the unintended direction; inactive means score below 0.9.
# valid calls are Y for active, N for inactive; nothing else

// below: answered compounds
CC(C)COC(=O)CCCCC(=O)OCC(C)C	Y
CN(C)CCCN1c2ccccc2Sc2ccc(Cl)cc21	N
CCN(CC)CCOc1ccc(C(=C(Cl)c2ccccc2)c2ccccc2)cc1	Y

Next compound, please.
What did this assay record as the result for Cc1cc(SC2=C(O)C[C@@](CCc3ccc(N)cc3)(C(C)C)OC2=O)c(C(C)(C)C)cc1CO ? N

* * *

- Read-out: HGF (gene 3082)
- assay.name: LTEA_HepaRG_HGF: Life Technologies and Expression Analysis (LTEA) Assay for Hepatocyte Growth Facto (HGF) using HepaRG (AID 2283505)
- reported.conditions: mRNA level, 48 h; actives raise or lower the signal
Calls of active or inactive are those of the source. The calls were made as follows: active = hit-call score of the fitted dose curve at least 0.9, where 1 is the maximum; inactive = score below 0.9.
# valid calls are t (active), f (inactive); nothing else

// below: answered compounds
O=NO	f
O=C1O[C@H]([C@H](O)CO)C(O)=C1O	f
CCCC[C@H]1CN(CC2CCOCC2)C(=O)OC12CCN(C1(C)CCN(C(=O)c3c(C)ncnc3C)CC1)CC2	f
CC(=O)S[C@H](C(=O)N[C@H]1Cc2ccccc2[C@H]2CCC[C@@H](C(=O)O)N2C1=O)C(C)C	f
CN(C)C(=O)NC1(c2ccccc2)CCN(CCC[C@]2(c3ccc(Cl)c(Cl)c3)CCCN(C(=O)c3ccccc3)C2)CC1	t

What did this assay record as the result for CSc1ccc(Oc2ccc(S(N)(=O)=O)cc2CN(C)C)cc1C ? f

What did this assay record as the result for CCCCC(CC)CO (stereo not drawn) ? f

What did this assay record as the result for Cn1cnc2c1c(=O)[nH]c(=O)n2C ? f

What did this assay record as the result for C/C=C/C=C/C(=O)O ? f

What did this assay record as the result for CC(=O)[C@@]1(O)CC[C@H]2[C@@H]3CCC4=CC(=O)CC[C@]4(C)[C@H]3CC[C@@]21C ? f

What did this assay record as the result for Cc1ccc(-c2cc(C(F)(F)F)nn2-c2ccc(S(N)(=O)=O)cc2)cc1 ? f

What did this assay record as the result for Cc1occc(=O)c1O ? f

What did this assay record as the result for COC(=O)CCC(=O)OC ? f

* * *

- Read-out: CFLAR gene, CFLAR (gene 8837)
- assay.name: LTEA_HepaRG_CFLAR: Life Technologies and Expression Analysis (LTEA) Assay for CFLAR gene using HepaRG (AID 2283455)
- reported.conditions: mRNA level, 48 h; actives raise or lower the signal
- Experimental: LTEA_HepaRG is a cell based, multiplexed-readout assay that uses HepaRG, a human liver cell line, with measurements taken at 48 hours after chemical dosing on a 96-well plate.LTEA_HepaRG_CFLAR is one of 102 assay component(s) measured in the LTEA HepaRG cell culture assay. It is a marker of Cell proliferation, survival, death.Data from the assay component LTEA_HepaRG_CFLAR was analyzed into 1 endpoint. […]
The source made the active and inactive calls. Rule for the calls: active = hit-call score of the fitted dose curve at least 0.9, where 1 is the maximum; inactive = score below 0.9.
# valid calls are true (1) for active, false (0) for inactive; nothing else

// below: answered molecules
CO[C@@H]1COCC[C@@H]1N[C@@H]1CC[C@@](C(=O)N2CCc3ncc(C(F)(F)F)cc3C2)(C(C)C)C1	false (0)
CCCCOC(=O)CCCCC(=O)OCCCC	false (0)
c1ccc2occc2c1	false (0)
Nc1nc(Cl)nc2c1ncn2[C@H]1C[C@H](O)[C@@H](CO)O1	false (0)

What did this assay record as the result for OCC(CO)n1cnc(-c2ccc(F)cc2)c1-c1ccnc(Oc2ccccc2)n1 ? false (0)

What did this assay record as the result for CCOCCOCCO ? false (0)

What did this assay record as the result for C=CCCCCCCCCCCCC ? false (0)

What did this assay record as the result for CCCCCCCCCCCCCCCCO ? false (0)
